src = PubChem BioAssay AID778

TESTED ON: Cytochrome P450 2C19 (Homo sapiens) (UniProt P33261)
Sequence (P33261 whole entry, looked up): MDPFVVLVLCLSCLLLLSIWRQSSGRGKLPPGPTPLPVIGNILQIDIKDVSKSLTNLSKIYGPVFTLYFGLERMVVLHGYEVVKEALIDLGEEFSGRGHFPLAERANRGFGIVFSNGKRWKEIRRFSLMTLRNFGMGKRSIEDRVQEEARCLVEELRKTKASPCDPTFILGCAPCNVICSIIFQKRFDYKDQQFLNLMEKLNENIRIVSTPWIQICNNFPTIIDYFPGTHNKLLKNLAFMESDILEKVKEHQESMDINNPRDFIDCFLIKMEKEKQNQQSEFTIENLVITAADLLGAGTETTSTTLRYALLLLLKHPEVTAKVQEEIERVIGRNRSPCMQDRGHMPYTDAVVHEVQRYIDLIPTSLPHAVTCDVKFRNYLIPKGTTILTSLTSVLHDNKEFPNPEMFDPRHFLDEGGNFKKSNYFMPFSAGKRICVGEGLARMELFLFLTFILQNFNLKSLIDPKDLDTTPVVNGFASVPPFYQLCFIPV
ASSAY INFO: blockers of cytochrome P450 2C19 activity – biochemical, luminescence, ADME assay, primary screen (AID 778);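 also: plate controls were negative control wells for no effect and 2.5 mM tranylcypromine positive control for full effect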
RUN PARAMETERS: CYP2C19 Supersomes, luciferin-H EGE luminescence, 30 min; at 5 µM; active compounds read high
The campaign covered roughly 96,000 compounds. About 20,000 (21%) were called active. These entries were drawn from the full list.
Measured inhibition of individual entries

[
  {
    "MOLECULE": "O=c1[nH]c(=O)n(Cc2ccco2)c2c1C(C(F)(F)F)(C(F)(F)F)N=C(c1ccco1)N2",
    "inhibition [%]": -12.6
  },
  {
    "MOLECULE": "c1ccc(-c2cc(-c3nnc4sc(-c5ccccn5)nn34)[nH]n2)cc1",
    "inhibition [%]": 10.4
  },
  {
    "MOLECULE": "Cc1ccc2nc(SC(C)C(=O)NCc3ccco3)[nH]c2c1 (stereo unspecified)",
    "inhibition [%]": 19.9
  },
  {
    "MOLECULE": "COC(=O)CNC(=O)c1ccccc1F",
    "inhibition [%]": -5.1
  },
  {
    "MOLECULE": "C=C(C)Cn1c(C)cc(C)c(S(=O)(=O)c2ccccc2C)c1=O",
    "inhibition [%]": 19.6
  },
  {
    "MOLECULE": "CC1(C)C/C(=C(/C#N)C(N)=O)CCO1",
    "inhibition [%]": -16.7
  },
  {
    "MOLECULE": "COc1ccc(C(=O)CN(C(=O)c2ccc(Cl)cc2)N2C(=O)c3ccccc3C2=O)cc1",
    "inhibition [%]": 36
  },
  {
    "MOLECULE": "Cn1c(=O)c2[nH]c(NCC3CCCO3)nc2n(-c2ccccc2)c1=O (stereo unspecified)",
    "inhibition [%]": -1
  },
  {
    "MOLECULE": "COc1ccc(-n2ncc3c(N4CCCc5ccccc54)ncnc32)cc1",
    "inhibition [%]": 12.3
  },
  {
    "MOLECULE": "COc1ccc(C(CC(=O)O)NC(=O)Cc2ccccc2)cc1 (stereo unspecified)",
    "inhibition [%]": -9.7
  },
  {
    "MOLECULE": "CC1OC2C(OC1C)N(S(C)(=O)=O)CCN2S(C)(=O)=O (stereo unspecified)",
    "inhibition [%]": -4.8
  }
]
